Experiment: protein stability index of a GFP-peptide fusion (yeast GPS) (PSI 1-4); higher = more stable; sorted into four equal gates, so the index is relative within each strain
Settings: ubr1∆
We use 3 as the dividing line for protein stability index: on or above the line is Yes, below is No.

Reference set (3 entries):
1. EQQPEQPQETEEHHEEE [RPT4] = Yes
2. YILANHYLSRVLSDQVG [YJL039C/NUP192] = No
3. PGRKYTTLGKLSTSVGW [RPL16A] = No

// inclusive: protein stability index at least 3? input: LSQPVSASKHEYSDNFP [SIR4]
No

* * *

Entries and their protein stability index
Assay: protein stability index of a GFP-peptide fusion (yeast GPS) (PSI 1-4); higher = more stable; sorted into four equal gates, so the index is relative within each strain
Conditions: san1∆
Could you keep your reply to the number by itself?

1) GDDVVNDVQGIDDVQTI [RPP1] = 3.42
2) IQIDEETENSESIASSN [MCD1] = 2.5
3) GVTKGYKYKMRYVYAHF [RPL9A] = 3.12

Entry VKWYHFDHNDKKLSINS [PRE7] : reported protein stability index = ?
2.15

Entry SSLKESSPDTMKLTDLL [SNF12] : reported protein stability index = ?
2.71

Entry YCKGKTCRKHTQHKVTQ [RPL42A] : reported protein stability index = ?
2.54

Entry LDYQETYVEELFPIVKK [YJL039C/NUP192] : reported protein stability index = ?
2.87

Entry VQEQLSKNRIIVEADEK [RET1] : reported protein stability index = ?
1.65

Entry SAARGLSLVYEIGGSDL [ECM29] : reported protein stability index = ?
3.33

* * *

Assay: protein stability index of a GFP-peptide fusion (yeast GPS) (PSI 1-4); higher = more stable; sorted into four equal gates, so the index is relative within each strain
Conditions: ubr1∆
ENDPOINT: protein stability index
Could you keep your reply to the number by itself?

Some solved entries appear below for comparison.
1) RVGVVSILEAGDSDILT [RPL30] = 3.03
2) PSFTDEQWITIESQMRD [PRP8] = 2.6

Entry TMEVKSFPILDQCVGQV [YMR129W/POM152] : reported protein stability index = ?
2.69

Entry EIMEERNVEQKLNELDE [NNF1] : reported protein stability index = ?
3.27

Entry DGWVKLTYKSELSKSRA [YMR153W/NUP53] : reported protein stability index = ?
1.84

Entry FQVSNVISLGPNLATFI [YJL039C/NUP192] : reported protein stability index = ?
2.17

Entry KWEQTYKKPTGGIVTVR [FAS1] : reported protein stability index = ?
2.37

Entry ETKWDDADEKSSNLYET [YJR042W/NUP85] : reported protein stability index = ?
3.25

Entry KNNILGSNVLKSGKTIV [RRP43] : reported protein stability index = ?
3.08

Entry ATGISGSVSEETELFEP [ECM29] : reported protein stability index = ?
3.04

Entry QWSIEIVLLDDEGKEIP [TAF14] : reported protein stability index = ?
2.75

Entry MINGRKLIKFETRNEDD [FAS1] : reported protein stability index = ?
2.81

Entry NADLDVKDELMFSPLVD [RPO21] : reported protein stability index = ?
3.31

Entry VRSEMGEPIHKIATRGV [FAS1] : reported protein stability index = ?
2.95

Entry QNSSKIVNVLSKCLNLI [SWI3] : reported protein stability index = ?
1.31

Entry RHLPMYTEFIDSFIEKI [ITC1] : reported protein stability index = ?
3

Entry AKAGLTFPVGRVHRLLR [HTA1] : reported protein stability index = ?
2.39

Entry SSSIKSTGPTGAVSLNP [RRP4] : reported protein stability index = ?
3.15

Entry CYLRWQHLRNEHGMNAP [SNF2] : reported protein stability index = ?
2.9

Entry KTYNCLHEKYLTEGGSI [SMC1] : reported protein stability index = ?
2.98

Entry DTSDIIVDPTAEQLKIS [RRP46] : reported protein stability index = ?
2.12

Entry EVYNVIASDGSYVNYRH [RPO21] : reported protein stability index = ?
3.08

Entry TNRHTLALETVLIKMVK [SIR3] : reported protein stability index = ?
2.88

* * *

Test: protein stability index of a GFP-peptide fusion (yeast GPS) (PSI 1-4); higher = more stable; sorted into four equal gates, so the index is relative within each strain
Conditions: pdr5∆
We use 3 as the dividing line for protein stability index: on or above the line is criterion met, below is criterion not met.

1. VNDEEEHKQLVAEIVQN [RPC82] = criterion not met
2. GDYDSHDISRYVRAKFL [PRP8] = criterion not met
3. IATGCKDGRIRIFKITE [YGL100W/SEH1] = criterion not met
4. DLYHFALNYENEAGRKL [SNF2] = criterion met
5. HESYCLPMDTNLFKINS [YMR129W/POM152] = criterion not met
6. LGKRINSAVNNAISNTQ [SRP54] = criterion met
7. VEYNLFTNRSTMMANFE [BRN1] = criterion not met
8. IPNQEVLQYSDWESDLH [YDL116W/NUP84] = criterion not met
9. NLKLISVSLVDEFPSEL [SIR4] = criterion not met
10. RYNAKAIGSGSEGAQAE [PUP2] = criterion met

Now examine the next entry.
// inclusive: protein stability index at least 3? input: VPLIKVADAKQLGEWAG [RPS12]
criterion met

* * *

Entries and their protein stability index
Test: protein stability index of a GFP-peptide fusion (yeast GPS) (PSI 1-4); higher = more stable; sorted into four equal gates, so the index is relative within each strain
Conditions: san1∆
Could you keep your reply to the number by itself?

Some solved entries appear below for comparison.
1. VFGASDKQAEGTPLFTF [YOR098C/NUP1] = 3
2. QPSYNSAIIENAFRKEE [GAL11] = 2.74
3. YDLNFKLRETLVKIDDL [SMC1] = 3.01

Entry LPDPILKNFLSYESLKK [MCD1] : reported protein stability index = ?
3.34

Entry KISEDPVKALNECIAST [SNF12] : reported protein stability index = ?
2.62

Entry FLKEKDTVAELQAQLDY [FAS2] : reported protein stability index = ?
3.15

Entry GISKKTRIAGVVYHPSN [RPS8A] : reported protein stability index = ?
2.41

* * *

Test: protein stability index of a GFP-peptide fusion (yeast GPS) (PSI 1-4); higher = more stable; sorted into four equal gates, so the index is relative within each strain
Conditions: pdr5∆
We use 3 as the dividing line for protein stability index: on or above the line is criterion met, below is criterion not met.

Reference set (2 entries):
1. SEEEEDEEENGSSDEDL [SSN2] = criterion met
2. VTDDPIWMRGHGTYFLD [RRP4] = criterion met

// inclusive: protein stability index at least 3? input: LKRYCCRRMILTHVDLI [RPB10]
criterion not met

// inclusive: protein stability index at least 3? input: LANRSKENFILDSLMKT [YJL039C/NUP192]
criterion not met

* * *

Entries and their protein stability index
Test: protein stability index of a GFP-peptide fusion (yeast GPS) (PSI 1-4); higher = more stable; sorted into four equal gates, so the index is relative within each strain
Conditions: pdr5∆
Could you keep your reply to the number by itself?

1. DPDLGLDLMFDEVYVQN [YJL039C/NUP192] = 3.04
2. QKEEGRSFTKAIEDAKK [YLR335W/NUP2] = 3.06
3. GGRYVYPVHEAHKGQIV [SNU114] = 2.97
4. GDTVRILDTSQSESRQK [SNU114] = 2.96
5. DTETFDTVNSALENDVA [YML103C/NUP188] = 3.63

Entry PKVPVSAAATPSLNKTI [GAL11] : reported protein stability index = ?
2.77

Entry IAAKTHILRISFLDRKR [SIN4] : reported protein stability index = ?
2.65

Entry ENLADLDYQIGNSESKV [LIN1] : reported protein stability index = ?
3.42

Entry LENSSRSPRVVTNALDN [NUT1] : reported protein stability index = ?
2.51

* * *

Experiment: protein stability index of a GFP-peptide fusion (yeast GPS) (PSI 1-4); higher = more stable; sorted into four equal gates, so the index is relative within each strain
Settings: ubr1∆
ENDPOINT: protein stability index
Could you keep your reply to the number by itself?

1. ELTKSLSIAFENGDYAA [RPN12] = 3.24

Entry EKENRFEIVDREKNSLE [SMC4] : reported protein stability index = ?
3.3

Entry LSCVKNDTISEDILQGI [NUT1] : reported protein stability index = ?
3.17

* * *

Assay: protein stability index of a GFP-peptide fusion (yeast GPS) (PSI 1-4); higher = more stable; sorted into four equal gates, so the index is relative within each strain
Details: ubr1∆
ENDPOINT: protein stability index
Could you keep your reply to the number by itself?

Some solved entries appear below for comparison.
1) TDVKLTLPQPRLNKLNS [SMD1] = 2.73
2) AIVPGQSISGTLELSAQ [SWP82] = 3.07
3) VTDDPIWMRGHGTYFLD [RRP4] = 3.07

Entry LDYQIGNSESKVEKGVN [LIN1] : reported protein stability index = ?
3.38

Entry QENGTIFRGSLIGCIPY [YDL088C/ASM4] : reported protein stability index = ?
2.5

Entry SPELKADLRPLQIKSIR [RPS7B] : reported protein stability index = ?
2.98

Entry VIDIGASGCNVTPIIDG [ARP7] : reported protein stability index = ?
3.02

Entry SLVNSYIIDSPQPSSIN [COB] : reported protein stability index = ?
1.32

Entry ENEEFITFLQTLYIGNT [ECM29] : reported protein stability index = ?
2.22
